assay: Absorption and fluorescence maxima of the dyes; type: physicochemical; settings: MeOH
Please respond with reported λmax^em for every item in the list.
Lab note: write values as number then unit, every time.

Compound	Experimental Readout	Reported Value
CCN1C(=CC=CC=CC2=[N+](CCCCS(=O)(=O)[O-])c3ccc(C)cc3C2(C)CCCCC(=O)O)C(C)(C)c2cc(C)ccc21 (stereo not drawn)	λmax^em	674 nm
CC[N+]1=C(/C=C/C=C/C=C2/N(CCCCS(=O)(=O)[O-])c3ccccc3C2(C)CCCCC(=O)O)C(C)(C)c2cc(C)cc(C)c21 (stereo not drawn)	λmax^em	670 nm
CC[N+]1=C(C=CC=CC=C2N(CCCCS(=O)(=O)[O-])c3ccccc3C2(C)C)C(C)(CCCCC(=O)O)c2ccccc21 (stereo not drawn)	λmax^em	662 nm
CC[N+]1=C(/C=C/C=C/C=C2/N(CCCCS(=O)(=O)[O-])c3ccccc3C2(C)CCCCC(=O)O)C(C)(C)c2cc(C)ccc21 (stereo not drawn)	λmax^em	667 nm
CCN1/C(=C/C=C/C=C/C2=[N+](CC)c3ccc(S(=O)(=O)[O-])cc3C2(C)C)C(C)(CCCCC(=O)O)c2ccccc21 (stereo not drawn)	λmax^em	660 nm

// each compound listed below needs its λmax^em
1. CCN1/C(=C/C=C/C=C/C2=[N+](CC)c3ccccc3C2(C)C)C(C)(CCCCC(=O)O)c2cc(S(=O)(=O)[O-])ccc21 (stereo not drawn)
2. CCN1C(=CC=CC=CC2=[N+](CCCCS(=O)(=O)[O-])c3ccccc3C2(C)CCCCC(=O)O)C(C)(C)c2ccccc21 (stereo not drawn)
3. CC[N+]1=C(/C=C/C=C/C=C2/N(CCCCS(=O)(=O)[O-])c3ccc(C)cc3C2(C)CCCCC(=O)O)C(C)(C)c2cc(C)cc(C)c21 (stereo not drawn)

1: 663 nm; 2: 662 nm; 3: 672 nm

// query λmax^em value for entry CCN1C(=CC=CC=CC2=[N+](CCCCS(=O)(=O)[O-])c3ccc(C)cc3C2(C)CCCCC(=O)O)C(C)(C)c2ccccc21 (stereo not drawn) 668 nm
